target: Human TRPML3 (Homo sapiens); assay: Fluorescent TRPML3 assay (as for TRPML1); conditions: as TRPML1 assay with TRPML3 subtype; read-out: Human TRPML 3 EC50
Sequence (Q8TDD5 whole entry): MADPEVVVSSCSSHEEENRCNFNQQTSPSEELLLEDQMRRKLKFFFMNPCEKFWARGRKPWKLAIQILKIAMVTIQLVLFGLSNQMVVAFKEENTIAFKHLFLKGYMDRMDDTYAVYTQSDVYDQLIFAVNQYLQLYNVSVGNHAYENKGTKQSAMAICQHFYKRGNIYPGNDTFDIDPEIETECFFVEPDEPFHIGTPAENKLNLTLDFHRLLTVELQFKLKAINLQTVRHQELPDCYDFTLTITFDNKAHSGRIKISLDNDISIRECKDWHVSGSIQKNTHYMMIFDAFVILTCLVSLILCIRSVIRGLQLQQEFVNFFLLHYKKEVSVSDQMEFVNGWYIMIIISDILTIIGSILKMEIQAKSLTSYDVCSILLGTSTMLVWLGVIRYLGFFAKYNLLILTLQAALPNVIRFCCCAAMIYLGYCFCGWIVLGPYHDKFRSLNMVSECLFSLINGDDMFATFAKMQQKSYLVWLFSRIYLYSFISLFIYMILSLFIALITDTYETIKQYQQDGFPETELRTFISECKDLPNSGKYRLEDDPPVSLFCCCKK
pEC50: −log10 of the molar value.
Reported pEC50 values follow for various compounds

C[C@@H]1CN(c2ncnc3c2c(C2CCC2)cn3-c2cccc(F)c2)[C@@H](C)CN1C(=O)c1ccccc1	5.70 to 6.30
C[C@@H]1CN(c2ncnc3c2c(C2CC2)cn3-c2cccc(F)c2)[C@@H](C)CN1C(=O)c1ccccc1	5.70 to 6.30
C[C@H]1CN(C(=O)c2ccccc2)CCN1c1ncnc2c1c(C(F)(F)F)cn2-c1cc(C#N)ccn1	5.70 to 6.30

Proceeding to the next compound to report its pEC50.
Looking up `Cc1cn(-c2cc(C#N)ccn2)c2ncnc(N3C[C@@H](C)N(C(=O)c4ccccc4)C[C@@H]3C)c12` , I see its pEC50 listed as 6.30 to 7.00

Just for reference, patent US20260226067A1 is where these values come from.
